experiment: Solubility in PBS after overnight incubation by nephelometry; assay type: physicochemical
PROPERTY: solubility kinetic
A complete answer gives the number followed by the unit.

Form field solubility kinetic, entry `O=C1c2oc3c(c2C(=O)c2cccc(O)c21)c(=O)oc1ccccc13` : 14 µM

Form field solubility kinetic, entry `Nc1ccc2oc(=O)c3c4c(oc3c2c1)C(=O)c1c(O)cccc1C4=O` : 14 µM

Form field solubility kinetic, entry `CC(=O)Oc1cccc2c1C(=O)c1c(oc3c1c(=O)oc1ccccc13)C2=O` : 35 µM

Form field solubility kinetic, entry `O=C1c2ccccc2C(=O)c2c1oc1c2c(=O)oc2ccccc21` : 70 µM
